System: KARPAS-45
Test Name: selective drug sensitivity score (sDSS, relative to normal bone marrow) (sDSS (score)); higher = more potent and effective on the cell line relative to normal bone marrow cells;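 note: ALL cell lines in 384-well plates, five doses spanning 10,000-fold, each plate scaled between vehicle and 100 µmol/L benzalkonium chloride controls, sDSS an adapted area-under-curve metric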
Experimental Parameters: 72 h
Readings of selective drug sensitivity score for the listed molecules
Measured Quantity: selective drug sensitivity score

INSERT INTO results (molecule, val) VALUES
  ('COc1cc([C@@H]2c3cc4c(cc3[C@@H](O[C@@H]3O[C@@H]5CO[C@@H](c6cccs6)O[C@H]5[C@H](O)[C@H]3O)[C@H]3COC(=O)[C@H]23)OCO4)cc(OC)c1O [Teniposide] (top concentration 10000 nM)', 0),
  ('CCCN(CCC)C(=O)C1=Cc2ccc(-c3ccc(C(=O)N4CCCC4)cc3)cc2N=C(N)C1 [Motolimod] (top concentration 10000 nM)', -3.48),
  ('Cc1cnc(NC(=O)Nc2cc(Br)c(C)cc2OC[C@@H]2CNCCO2)cn1 [Rabusertib] (top concentration 1000 nM)', 0.36),
  ('Cc1nc(C(=O)NCC(=O)O)c(O)c2ccc(Oc3ccccc3)cc12 [Roxadustat] (top concentration 10000 nM)', -1.12);

###

Tested on: RCH-ACV
Test Name: selective drug sensitivity score (sDSS, relative to normal bone marrow) (sDSS (score)); higher = more potent and effective on the cell line relative to normal bone marrow cells
Experimental Parameters: 72 h
Classification field: class 1 = selective drug sensitivity score at or over 9; class 0 = selective drug sensitivity score under 9.

INSERT INTO measurements (compound, label_class) VALUES
  ('COCCOc1cnc2ccn([C@H](C)c3nnc4c(F)cc(-c5cnn(C)c5)cn34)c(=O)c2c1 [AMG-337] (top concentration 10000 nM)', 'class 0'),
  ('CCc1c2c(nc3ccc(O)cc13)-c1cc3c(c(=O)n1C2)COC(=O)[C@]3(O)CC [SN-38] (top concentration 10000 nM)', 'class 1'),
  ('Cc1cn(-c2cc(NC(=O)c3ccc(C)c(Nc4nccc(-c5cnccn5)n4)c3)cc(C(F)(F)F)c2)cn1 [Radotinib] (top concentration 10000 nM)', 'class 1'),
  ('CN1CCC(COc2cnc(-c3cccc(Cn4nc(-c5cccc(C#N)c5)ccc4=O)c3)nc2)CC1 [Tepotinib] (top concentration 1000 nM)', 'class 0'),
  ('COc1cccc(OCCCN)c1-c1cc(Nc2cnc(C#N)cn2)n[nH]1 [Prexasertib] (top concentration 10000 nM)', 'class 1'),
  ('CC1=C2C[C@H]3[C@@H](CC[C@@H]4C[C@H](NS(C)(=O)=O)CC[C@@]43C)[C@@H]2CC[C@@]2(C1)O[C@@H]1C[C@H](C)CN[C@H]1[C@H]2C [Saridegib] (top concentration 10000 nM)', 'class 0');

###

Tested on: SUP-B15
Test Name: selective drug sensitivity score (sDSS, relative to normal bone marrow) (sDSS (score)); higher = more potent and effective on the cell line relative to normal bone marrow cells
Experimental Parameters: 72 h
Readings of selective drug sensitivity score for the listed molecules
Measured Quantity: selective drug sensitivity score

INSERT INTO assay_data (molecule, val) VALUES
  ('CC(C)(O)CC(=O)NCCn1ccc2ncnc(Nc3ccc(Oc4cccc(C(F)(F)F)c4)c(Cl)c3)c21 [TAK-285] (top concentration 2500 nM)', 0),
  ('CNC(=O)c1cc(Oc2ccc(NC(=O)Nc3ccc(Cl)c(C(F)(F)F)c3)cc2)ccn1 [Sorafenib] (top concentration 1000 nM)', 0),
  ('Cc1cccc(-c2nn3c(c2-c2ccnc4ccc(C(N)=O)cc24)CCC3)n1 [Galunisertib] (top concentration 1000 nM)', 0);

###

Readings of selective drug sensitivity score for the listed compounds
Tested on: COG-LL-319h
Test Name: selective drug sensitivity score (sDSS, relative to normal bone marrow) (sDSS (score)); higher = more potent and effective on the cell line relative to normal bone marrow cells
Experimental Parameters: 72 h
Measured Quantity: selective drug sensitivity score

INSERT INTO results (compound, val) VALUES
  ('Cc1sc2c(c1C)C(c1ccc(Cl)cc1)=N[C@@H](CC(=O)Nc1ccc(O)cc1)c1nnc(C)n1-2 [Birabresib] (top concentration 10000 nM)', 13.5),
  ('Oc1nc(-c2ccc(C(F)(F)F)cc2)nc2c1CSCC2 [XAV939] (top concentration 10000 nM)', -0.14),
  ('CN1CCC(COc2cnc(-c3cccc(Cn4nc(-c5cccc(C#N)c5)ccc4=O)c3)nc2)CC1 [Tepotinib] (top concentration 1000 nM)', 2.22),
  ('Cc1cc(C(C)Nc2ccccc2)c2nc(N3CCOCC3)cc(=O)n2c1 (centres undefined) [TGX-221] (top concentration 10000 nM)', -1.64),
  ('Nc1cccc2c1CN(C1CCC(=O)NC1=O)C2=O (centres undefined) [Lenalidomide] (top concentration 100000 nM)', -1.78),
  ('COc1cccc2c1C(=O)c1c(O)c3c(c(O)c1C2=O)C[C@@](O)(C(C)=O)C[C@@H]3O[C@H]1C[C@H](N)[C@H](O)[C@H](C)O1 [Daunorubicin] (top concentration 1000 nM)', 16.4),
  ('O=c1[nH]cc(F)c(=O)[nH]1 [Fluorouracil] (top concentration 10000 nM)', 6.56),
  ('CCN(CC)C(=S)SSC(=S)N(CC)CC [Disulfiram(+CuCl2)] (top concentration 50000 nM)', 18.7),
  ('Cc1cc(-c2nc(-c3ccc(OC(F)(F)F)cc3)no2)nn1Cc1ccnc(N2CCN(C3CC3)CC2)c1 [BAY_87-2243] (top concentration 1000 nM)', 2.54),
  ('C/C=C1\NC(=O)[C@H]2CSSCC/C=C/[C@H](CC(=O)N[C@H](C(C)C)C(=O)N2)OC(=O)[C@H](C(C)C)NC1=O [Romidepsin] (top concentration 1000 nM)', 1.16),
  ('O=C(Nc1ccncc1)C(=O)c1cn(Cc2ccc(Cl)cc2)c2ccccc12 [Indibulin] (top concentration 10000 nM)', 17),
  ('Cc1c(C(=O)Nc2ccc(N3C[C@@H](C)O[C@@H](C)C3)nc2)cccc1-c1ccc(OC(F)(F)F)cc1 [Sonidegib] (top concentration 10000 nM)', 4.98),
  ('CCc1cc2c(cc1N1CCC(N3CCOCC3)CC1)C(C)(C)c1[nH]c3cc(C#N)ccc3c1C2=O [Alectinib] (top concentration 1000 nM)', 2.48),
  ('COC(=O)c1ccc([C@H]2c3[nH]c4ccccc4c3C[C@H](C(=O)OC)N2C(=O)CCl)cc1 [RSL3] (top concentration 10000 nM)', 0);

###

System: NALM-6
Test Name: selective drug sensitivity score (sDSS, relative to normal bone marrow) (sDSS (score)); higher = more potent and effective on the cell line relative to normal bone marrow cells
Experimental Parameters: 72 h
Readings of selective drug sensitivity score for the listed molecules
Measured Quantity: selective drug sensitivity score

INSERT INTO results (molecule, target_desc, val) VALUES
  ('O=C1CN2Cc3c(ccc(Cl)c3Cl)N=C2N1 [Anagrelide] (top concentration 10000 nM)', 'NALM-6', 0),
  ('COC(=O)c1ccc2c(c1)NC(=O)/C2=C(\Nc1ccc(N(C)C(=O)CN2CCN(C)CC2)cc1)c1ccccc1 [Nintedanib] (top concentration 10000 nM)', 'NALM-6', -2.36),
  ('Cc1cc(OCc2nnc(SC3CCCC3)n2-c2cccnc2)ccc1-c1ccc(S(C)(=O)=O)cc1 [NMS-873] (top concentration 10000 nM)', 'NALM-6', 7.36),
  ('COc1cc2ncnc(Nc3ccc(F)c(Cl)c3)c2cc1NC(=O)/C=C/CN1CCCCC1 [Dacomitinib] (top concentration 1000 nM)', 'NALM-6', -1.64),
  ('CO[C@H]1C[C@@H]2CC[C@@H](C)[C@@](O)(O2)C(=O)C(=O)N2CCCC[C@H]2C(=O)O[C@H]([C@H](C)C[C@@H]2CC[C@@H](OP(C)(C)=O)[C@H](OC)C2)CC(=O)[C@H](C)/C=C(\C)[C@@H](O)[C@@H](OC)C(=O)[C@H](C)C[C@H](C)/C=C/C=C/C=C/1C [Ridaforolimus] (top concentration 100 nM)', 'NALM-6', -4.84),
  ('COc1cc2c(Oc3ccc4[nH]c(C)cc4c3F)ncnc2cc1OCCCN1CCCC1 [Cediranib] (top concentration 1000 nM)', 'NALM-6', 0),
  ('O=C(O)C(=O)O.[NH-][C@@H]1CCCC[C@H]1[NH-].[Pt+2] [Oxaliplatin] (top concentration 100000 nM)', 'NALM-6', 6.12),
  ('CC1(C)CNc2cc(NC(=O)c3cccnc3NCc3ccncc3)ccc21 [Motesanib] (top concentration 10000 nM)', 'NALM-6', 1.28),
  ('Cc1ncc(-c2ccnc(Nc3ccc(S(C)(=O)=O)cc3)n2)n1C(C)C [AZD-5438] (top concentration 10000 nM)', 'NALM-6', 1.44),
  ('COc1cccc(-c2ccc(NC(=O)C3=C(C(=O)O)CCC3)c(F)c2)c1 [Vidofludimus] (top concentration 10000 nM)', 'NALM-6', 3.4),
  ('CC(C)NC(=O)COc1cccc(-c2nc(Nc3ccc4[nH]ncc4c3)c3ccccc3n2)c1 [KD025] (top concentration 5000 nM)', 'NALM-6', 1.14),
  ('CCn1cc(-c2ccnc3[nH]c(-c4cccc(CN(C)C)c4)cc23)c(-c2ccc(NC(=O)N(C)C)cc2)n1 (top concentration 1000 nM)', 'NALM-6', 13.8);

Measured values drawn from the supplement of paper PMC8967900 for this set.
